These data points were gathered from PubChem BioAssay (NCI).

# Test system: HS 578T breast
# assay_protocol: NCI-60 one-dose screen, 48 h (100 = growth as untreated, 0 = no growth, -100 = all killed)
# measurement_parameters: 10 µM unless noted
The panel holds about 83,000 compounds, 20% with a hit somewhere; the sample as a whole holds those more often.
Mark each entry condition met if its growth sits below 40%, and condition not met for all others.

INSERT INTO results (compound, cat) VALUES
  ('O=C1Nc2ccccc2C2c3cccn3-c3ccccc3N12 (centres undefined)', 'condition not met'),
  ('C=C1C(=O)O[C@H]2[C@H]1CC/C(CNC(=O)c1cc3ccccc3[nH]1)=C\CC[C@@]1(C)O[C@@H]21', 'condition not met'),
  ('COc1ccc(C2=NN(C(=O)c3cc(OC)c(OC)c(OC)c3)C(c3ccc(N(C)C)cc3)C2)cc1 (centres undefined)', 'condition met'),
  ('C(/C=C/c1ccccc1)=Nc1ccc(CCc2ccc(N=C/C=C/c3ccccc3)cc2)cc1', 'condition not met'),
  ('COc1ccc(C2C(C#N)=C(N)Oc3c2sc2c(Br)cccc32)cc1 (centres undefined)', 'condition not met'),
  ('Cc1cc(N2CCN(C)CC2)nc(NCc2cc(Nc3ccnc4cc(Cl)ccc34)ccc2F)n1', 'condition met'),
  ('N#Cc1c(-c2ccccc2)c(C#N)c2c(C#N)c(N)nn2c1N', 'condition met'),
  ('CCN(CC)CCNC(=O)c1ccc(-c2nc3ccc4[nH]ncc4c3c3c2CCCC3)cc1', 'condition not met'),
  ('Cc1cc2nc(-c3c(-c4ccc(F)cc4)nc4sccn34)[nH]c2cc1C', 'condition not met'),
  ('COc1ccc(OC)c(Nc2nnc(-c3ccc(Cl)cc3)o2)c1', 'condition not met'),
  ('Cn1c(/C=C/[N+](=O)[O-])cc2ccccc21', 'condition not met'),
  ('COCC[C@H]1CCC/C=C/[C@@H]2C[C@H](O)C[C@H]2[C@H](O)/C=C/C(=O)O1', 'condition met'),
  ('CN1C(=O)/C(=C/c2ccc(C(=O)Nc3ncc(Cc4ccc(F)cc4)s3)cc2)SC1=S', 'condition met'),
  ('CNC(=O)c1c(NC(=O)c2ccc(C(C)(C)C)cc2)sc2c(CN(C)C)c(O)ccc12', 'condition not met'),
  ('COc1cc(C(=O)/C=C/c2c(-c3cccs3)nc3ccccn23)cc(OC)c1OC', 'condition met'),
  ('COc1ccccc1-n1c(-c2cc(O)ccc2C)cn2c3c(=O)[nH]c(=O)n(C)c3nc12', 'condition met'),
  ('O=P(O)(O)OCC1OC(n2cnc3c(NCc4ccccc4)ncnc32)C(O)C1O (centres undefined)', 'condition met'),
  ('COc1cc2c(cc1O)[C@@]1(C)[C@H](c3ccccc3Br)OC(=O)N1CC2', 'condition not met'),
  ('COc1cc(/C=C/c2cc(/C=C/c3ccc(O)c(OC)c3)n(C(=O)Nc3ccc(F)cc3)n2)ccc1O', 'condition met'),
  ('COc1ccc2c(c1)c(-c1nonc1-c1cn(C)c3ccc(OC)cc13)cn2C', 'condition met'),
  ('CO[C@H](C(=O)[C@@H](O)[C@@H](C)O)[C@@H]1Cc2cc3cc(O[C@H]4C[C@@H](O[C@H]5C[C@@H](O)[C@H](O)C(C)O5)[C@H](O)C(C)O4)c(C)c(O)c3c(O)c2C(=O)[C@H]1O[C@H]1C[C@@H](O[C@H]2C[C@@H](O[C@H]3C[C@@H](OC)[C@H](O)C(C)O3)[C@@H](O)C(C)O2)C(O)(O)C(C)O1 (some centres undefined)', 'condition met'),
  ('Cc1cc(C)c(-c2c(O)c(Br)c(-c3c(C)cc(C)c(Br)c3C)c(O)c2Br)c(C)c1Br', 'condition not met'),
  ('Cc1cc(F)ccc1S(=O)(=O)Nc1cc(-c2c(O)ccc3ccccc23)c(O)c2ccccc12', 'condition not met');

----------
Entries and their measured growth follow.
# Tested on: A498 renal
# assay_protocol: NCI-60 one-dose screen, 48 h (100 = growth as untreated, 0 = no growth, -100 = all killed)
# measurement_parameters: 10 µM unless noted
About 83,000 compounds went through this panel and 20% of them were active in at least one assay; those are over-represented in the sample as a whole.
readout_name: growth (%)

INSERT INTO measurements (compound, measured_value) VALUES
  ('CC(C)=CC(=O)N[C@@H]1CC2CCC3C(CC[C@@]4(C)C3CC[C@@H]4C(C)N(C)C)[C@@]2(C)C[C@@H]1O (stereo partly drawn)', 67.2),
  ('CC1CN=C(c2cccc(-c3ccc(-c4ccccc4)o3)c2)N1 (stereo not drawn)', 25.7),
  ('N=C(N)SCc1cccc2c(CSC(=N)N)cccc12', 87.2),
  ('CCN(CC)c1ccc(/C=C\c2cc(C)c3cc(C)ccc3n2)cc1', 18.2),
  ('N#Cc1nc(-c2ccc(F)cc2)oc1S(=O)(=O)N1CCN(c2ccc(F)cc2)CC1', 113),
  ('FC(F)(F)c1[nH]ncc1-c1nc2c(N3CCCCC3)cc3[nH]ncc3c2c2c1CCCC2', -71.6),
  ('CCC(CC)(N(CC(=O)O)CC(=O)O)C(CC)(CC)N(CC(=O)O)CC(=O)O', 126),
  ('COc1cc(C2=NN(C(C)=O)C(c3ccc(N(C)C)cc3)C2)cc(OC)c1OC (stereo not drawn)', 76);

----------
# System: CAKI-1 renal
# assay_protocol: NCI-60 one-dose screen, 48 h (100 = growth as untreated, 0 = no growth, -100 = all killed)
# measurement_parameters: 10 µM unless noted
The panel holds about 83,000 compounds, 20% with a hit somewhere; the sample as a whole holds those more often.
readout_name: growth (%)

INSERT INTO measurements (molecule, target_or_test_system, measured_value) VALUES
  ('Cc1cscc(C)c1=S', 'CAKI-1 renal', 51.2),
  ('CC1(C)OC(=O)C(=Cc2cccc(Br)c2)C(=O)O1', 'CAKI-1 renal', 100),
  ('CCN(CC)CCN(CCN(CC)CC)c1ccccc1', 'CAKI-1 renal', 86.6),
  ('CCCCCCCC/C=C\CCCCCCCCOc1ccccc1CC(=O)NCC[N+]1(C)CCCCC1', 'CAKI-1 renal', 81.9),
  ('COc1ccc(C(O)c2cc3c(N)c(C(=O)Nc4cccc(Cl)c4)sc3nc2C)cc1 (stereo unspecified)', 'CAKI-1 renal', 24.7),
  ('CC1COCC(C)N1C1=C(Cl)C(=O)c2ccccc2C1=O (stereo unspecified)', 'CAKI-1 renal', 65.4);

----------
# System: SK-MEL-28 melanoma
# assay_protocol: NCI-60 one-dose screen, 48 h
# measurement_parameters: 10 µM unless noted
Compounds without any hit were thinned out: in the full panel of roughly 83,000, 20% have a hit. The source made the active and inactive calls. The calls were made as follows: active = growth percent below 10; inactive = the rest.
Outcomes: active, inactive

INSERT INTO assay_data (molecule, cat) VALUES
  ('N=C(N)c1ccc(-c2ccc(-c3ccc(F)cc3)s2)s1', 'inactive'),
  ('CS(=O)(=O)Cc1cnc(C2OCCO2)s1', 'inactive'),
  ('C/C(=C(/c1ccc(Cl)cc1)c1ccc(OCCCN(C)C)cc1)c1ccc(Cl)cc1', 'inactive'),
  ('C#CCOc1cccc(-c2ncc3cc(NC(=O)CCl)ccc3n2)c1', 'inactive'),
  ('Cc1ccc(Nc2nc(-c3ccc(F)cc3)c(C#N)c(=O)n2C)cc1', 'inactive'),
  ('C=C1C(=O)O[C@H]2[C@H]1CC/C(COC(=O)c1cc3cc(F)ccc3[nH]1)=C\CC[C@@]1(C)O[C@@H]21', 'active'),
  ('O=C(CCCCl)NNc1nccc(Nc2ccc(S(=O)(=O)Nc3ccncc3)cc2)n1', 'inactive'),
  ('Cn1c(O)c(C(/C=C/c2ccccc2)=Nc2ccccc2N)c(=O)n(C)c1=O', 'inactive'),
  ('CC1CN=C(c2cccc(-c3ccc(-c4ccccc4)o3)c2)N1 (stereo not drawn)', 'active'),
  ('Cn1cccc1/C=C1\C(=O)Nc2ccccc21', 'inactive'),
  ('CCCC(O)Cn1ncc(C(=O)OCC)c1NC(=O)NCc1cccc(F)c1 (stereo not drawn)', 'inactive'),
  ('COP(=O)(OC)c1nnn(-c2cccc([N+](=O)[O-])c2)c1C', 'inactive'),
  ('CCCCCCCCn1ccc2cc(NC(=O)Cn3cc(CN4CCOCC4)nn3)ccc21', 'inactive'),
  ('O=C1OCC2=C1C(c1cccc(F)c1)c1cc3c(cc1N2CCO)OCO3 (stereo not drawn)', 'inactive'),
  ('Fc1ccc(CNc2c3ccccc3nc3ccccc23)cc1', 'inactive'),
  ('Cc1ccc(C)c2c1C(O)(C#Cc1ccccc1)c1ccccc1C2(O)C#Cc1ccccc1 (stereo not drawn)', 'inactive'),
  ('c1ccc(CNc2ccc3nc(CCC4CCCCC4)[nH]c3c2)cc1', 'inactive'),
  ('CCCCn1sc(=O)n(Cc2ccc(CNC(=O)OCc3ccc4c(Br)cc(Br)c(O)c4n3)cc2)c1=O', 'inactive'),
  ('Cc1ccc(C)n1/C=C/n1c(C)ccc1C', 'inactive'),
  ('CSCCC(NC(=O)c1ccccc1)C(=O)N/N=C1\S/C(=C/c2ccc(Cl)cc2)C(=O)N1C (stereo not drawn)', 'inactive'),
  ('CC1(C)CC[C@]2(C(=O)N3CCOCC3)CC[C@]3(C)C(=CC[C@@H]4[C@@]5(C)C/C(=C/c6ccncc6)C(=O)C(C)(C)[C@@H]5CC[C@]43C)[C@@H]2C1', 'active'),
  ('COc1cccc(Nc2ccnc3[nH]c4ccc([N+](=O)[O-])cc4c23)c1', 'inactive'),
  ('CN1CCN(CCCOC(=O)c2c3c(n4ccccc24)C(=O)c2ncccc2C3=O)CC1', 'inactive');
